The compounds below have reported IC50 for Protein-arginine deiminase type-4 (Homo sapiens, UniProt Q9UM07).
Answers are plain numbers, in mM.

COMPOUND	IC50 [mM]
Cn1cnc([N+](=O)[O-])c1Sc1ncnc2nc[nH]c12	8.1
Cc1oncc1C(=O)Nc1ccc(C(F)(F)F)cc1 [LEFLUNOMIDE]	2.4

Now for the compound whose IC50 we want.
Recorded IC50 (compound CN(C)[C@@H]1C(O)=C(C(N)=O)C(=O)[C@@]2(O)C(O)=C3C(=O)c4c(O)cccc4[C@@](C)(O)[C@H]3C[C@@H]12 ): 0.78

----------
Molecular target: Protein-arginine deiminase type-4 (Homo sapiens, UniProt Q9UM07)
Sequence (Q9UM07 whole entry): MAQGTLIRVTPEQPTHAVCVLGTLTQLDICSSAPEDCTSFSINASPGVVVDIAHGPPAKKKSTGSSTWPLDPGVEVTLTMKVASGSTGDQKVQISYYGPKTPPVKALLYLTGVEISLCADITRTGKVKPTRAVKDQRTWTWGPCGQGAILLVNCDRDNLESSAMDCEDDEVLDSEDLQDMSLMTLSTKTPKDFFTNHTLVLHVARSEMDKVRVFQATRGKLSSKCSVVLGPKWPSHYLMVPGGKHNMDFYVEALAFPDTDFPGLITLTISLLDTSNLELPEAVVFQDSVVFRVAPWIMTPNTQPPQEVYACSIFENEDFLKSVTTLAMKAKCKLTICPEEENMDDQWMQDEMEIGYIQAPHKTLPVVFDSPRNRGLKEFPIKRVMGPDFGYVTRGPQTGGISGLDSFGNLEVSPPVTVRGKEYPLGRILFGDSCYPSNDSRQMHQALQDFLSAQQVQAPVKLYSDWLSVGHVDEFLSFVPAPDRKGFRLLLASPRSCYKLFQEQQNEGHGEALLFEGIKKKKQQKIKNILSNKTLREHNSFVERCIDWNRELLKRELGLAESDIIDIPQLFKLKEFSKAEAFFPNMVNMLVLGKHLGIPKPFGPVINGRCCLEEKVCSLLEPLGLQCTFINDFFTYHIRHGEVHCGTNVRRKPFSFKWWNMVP
Experiment: Inhibition of PAD4 measured by slope plot of Lineweaver-Burke analyses
MEASUREMENT_TYPE: Ki (µM)
Give bare numbers, in µM.

Item: CN(C)c1ccc(O)c2c1C[C@H]1CC3[C@H](N(C)C)C(O)=C(C(N)=O)C(=O)C3(O)C(O)=C1C2=O (single isomer, unassigned) | Ki: 180

----------
Measured pIC50 (Protein-arginine deiminase type-4 (Homo sapiens))
pIC50: −log10 of the molar value.

Look over these answered cases.
MOLECULE	TARGET_OR_SYSTEM	MEASUREMENT_TYPE	VALUE
CN(Cc1cnc2nc(N)nc(N)c2n1)c1ccc(C(=O)N[C@@H](CCC(=O)O)C(=O)O)cc1 [METHOTREXATE]	Protein-arginine deiminase type-4 (Homo sapiens)	pIC50	< 2.00
CC[C@H]1OC(=O)[C@H](C)[C@@H](O[C@H]2C[C@@](C)(OC)[C@@H](O)[C@H](C)O2)[C@H](C)[C@@H](O[C@@H]2O[C@H](C)C[C@H](N(C)C)[C@H]2O)[C@](C)(O)C[C@@H](C)CN(C)[C@H](C)[C@@H](O)[C@]1(C)O	Protein-arginine deiminase type-4 (Homo sapiens)	pIC50	< 2.00

Below: the item to evaluate.
// Cc1cc(NS(=O)(=O)c2ccc(N)cc2)no1 : pIC50 value = < 2.00
